Target: Gal(b1-3)GlcNAc(b1-2)Man(a1-3)[Gal(b1-3)GlcNAc(b1-2)Man(a1-6)]Man(b1-4)GlcNAc(b1-4)[Fuc(a1-6)]GlcNAc
Assay: glycan array binding signal (z-score within array); higher = stronger binding
Conditions: glycan notation: IUPAC condensed, linker removed
Shown is part of a subset that was picked to be rich in the strongest signals.
quantity.kind: glycan array binding signal (z-score)
Give the value as a plain number.

Output glycan array binding signal (z-score) of SGC, Q9M345 (protein) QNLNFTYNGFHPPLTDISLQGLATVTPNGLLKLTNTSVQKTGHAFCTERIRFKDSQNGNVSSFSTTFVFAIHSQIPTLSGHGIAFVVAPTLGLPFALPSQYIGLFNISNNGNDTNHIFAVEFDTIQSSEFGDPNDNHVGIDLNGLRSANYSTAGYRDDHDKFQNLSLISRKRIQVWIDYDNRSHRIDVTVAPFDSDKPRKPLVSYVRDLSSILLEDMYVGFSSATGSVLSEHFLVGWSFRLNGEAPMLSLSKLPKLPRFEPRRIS
6.74

Output glycan array binding signal (z-score) of BTL (Bryothamnion triquetrum) (protein) ADPICGSSGYSCTTPAILTPKSPGSFPSGYSKVIVTGVGGSYSVYIHRPDGFKVYKASEGGCASFGSYSGGGNSEVGKYGSGGTVVAVACK
4.76

Output glycan array binding signal (z-score) of DC-ASGPR L+GEE (Homo sapiens) (protein) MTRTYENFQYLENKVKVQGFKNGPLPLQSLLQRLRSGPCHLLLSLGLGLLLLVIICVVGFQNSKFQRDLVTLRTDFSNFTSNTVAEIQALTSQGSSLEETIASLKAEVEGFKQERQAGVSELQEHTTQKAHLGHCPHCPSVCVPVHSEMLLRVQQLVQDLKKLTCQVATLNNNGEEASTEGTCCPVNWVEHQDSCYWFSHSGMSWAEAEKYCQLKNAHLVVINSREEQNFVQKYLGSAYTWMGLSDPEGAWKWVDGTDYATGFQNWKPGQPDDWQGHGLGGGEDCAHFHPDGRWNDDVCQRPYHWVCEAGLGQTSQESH
-0.527
